Reference source: paper PMC8027839

- assayed_system: SapM (Mycobacterium tuberculosis, UniProt O53361)
- Construct: made in house; host or cells: Escherichia coli C41 (DE3)
- assay_protocol: biochemical
- Type: biochemical
- test_settings: 0.5 h; compounds at 100 µM; relative to pNPP DMSO control; read-out: %SA (percentage specific activity of SapM)
Could you please mark TRUE for values of remaining activity at 100 µM below 60% and FALSE for values at or above it?

structure_string=N#CC(C#N)=C(N)/C(C#N)=C/c1cc(O)c(O)c(O)c1 assayed_system="SapM (Mycobacterium tuberculosis, UniProt O53361)" category_label=TRUE
structure_string=Oc1cc(O)c2c(c1)O[C@H](c1ccc(O)c(O)c1)[C@H](O)[C@H]2c1c(O)cc(O)c2c1O[C@H](c1ccc(O)c(O)c1)[C@H](O)C2 assayed_system="SapM (Mycobacterium tuberculosis, UniProt O53361)" category_label=FALSE
structure_string=O=c1c(-c2ccc(O)cc2)coc2cc(O)ccc12 assayed_system="SapM (Mycobacterium tuberculosis, UniProt O53361)" category_label=FALSE
structure_string=CC(C)(C)c1cc(/C=C(\C#N)C(N)=S)cc(C(C)(C)C)c1O assayed_system="SapM (Mycobacterium tuberculosis, UniProt O53361)" category_label=FALSE
structure_string=O=c1c(O)c(-c2cc(O)c(O)c(O)c2)oc2cc(O)cc(O)c12 assayed_system="SapM (Mycobacterium tuberculosis, UniProt O53361)" category_label=FALSE
structure_string=O=C(O)c1cc(O)c(O)c(O)c1 assayed_system="SapM (Mycobacterium tuberculosis, UniProt O53361)" category_label=TRUE

----------
- assayed_system: SapM (Mycobacterium tuberculosis)
- Construct: made in house; host or cells: Escherichia coli C41 (DE3)
- Sequence (O53361 44-299): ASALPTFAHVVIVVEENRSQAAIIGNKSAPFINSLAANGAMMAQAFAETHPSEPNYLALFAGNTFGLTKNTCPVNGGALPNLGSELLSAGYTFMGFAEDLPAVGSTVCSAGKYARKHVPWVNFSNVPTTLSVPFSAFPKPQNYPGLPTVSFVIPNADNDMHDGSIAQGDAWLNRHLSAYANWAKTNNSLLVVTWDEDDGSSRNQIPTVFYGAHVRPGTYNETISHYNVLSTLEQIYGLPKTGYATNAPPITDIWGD
- assay_protocol: Microscale thermophoresis of SapM binding
- test_settings: MST titration; read-out: Single species dose response EC50
pEC50: −log10 of the molar value.
recorded_metric: pEC50

structure_string=O=c1oc2c(cc1O)oc(=O)c1cc(O)c(O)c(O)c12 assayed_system="SapM (Mycobacterium tuberculosis)" assay_value=4.49

----------
- assayed_system: SapM (Mycobacterium tuberculosis)
- Construct: made in house; host or cells: Escherichia coli C41 (DE3)
- assay_protocol: biochemical
- Format: biochemical
recorded_metric: %SA (percentage specific activity of SapM) (%)

compound=N#Cc1c2nc3ccccc3nc2n2ccc(NC(=O)c3cccs3)cc12 assay_value=20.5
compound="CCCCCCCCCCCC(=O)c1c(O)c(C(=O)CCCCCCCCCCC)c(O)c(C2CC(c3ccc(O)cc3)Oc3cc(O)ccc32)c1O (stereo not shown)" assay_value=0
compound="O=[N+]([O-])c1ccc(Oc2ccc(Br)cc2)c(C(O)P(=O)(O)O)c1 (stereo not shown)" assay_value=46.6
compound=N#CC(C#N)=Cc1ccc(O)cc1 assay_value=104.2

----------
- assayed_system: SapM (Mycobacterium tuberculosis, UniProt O53361)
- Construct: made in house; host or cells: Escherichia coli C41 (DE3)
- assay_protocol: Microscale thermophoresis of SapM binding
- test_settings: Bivalent fit EC50 (1), MST titration; tighter binding mode
- Description: Microscale thermophoresis (MST) was used to study the direct binding interaction of SapM with three compounds 1, 2 and 13. SapM was labelled with NTA-647nm dye which attaches to the 6-histidine tag. 100 nM NTA-647 was incubated with 200 nM SapM for 1-hour at 4 °C and then centrifuged at 20,000 rcf for 20 minutes at 4 °C in 20 mM HEPES, 200 mM NaCl pH 7.0. 10 mM compound was diluted to 500 μM in the same buffer. […]
recorded_metric: EC50 (µM)

compound="N#CC(C#N)=C(N)/C(C#N)=C/c1cc(O)c(O)c(O)c1 [Compound 13, Tyrphostin AG 183]" unit_tag=µM assay_value=0.59
compound="N#CC(C#N)=C(N)/C(C#N)=C/c1cc(O)c(O)c(O)c1 [Compound 1, Tyrphostin 51]" unit_tag=µM assay_value=0.52

----------
Reported pIC50 values for a set of compounds
- assayed_system: MptpB (Mycobacterium tuberculosis, UniProt I6WXK4)
- Sequence (I6WXK4 whole entry, looked up): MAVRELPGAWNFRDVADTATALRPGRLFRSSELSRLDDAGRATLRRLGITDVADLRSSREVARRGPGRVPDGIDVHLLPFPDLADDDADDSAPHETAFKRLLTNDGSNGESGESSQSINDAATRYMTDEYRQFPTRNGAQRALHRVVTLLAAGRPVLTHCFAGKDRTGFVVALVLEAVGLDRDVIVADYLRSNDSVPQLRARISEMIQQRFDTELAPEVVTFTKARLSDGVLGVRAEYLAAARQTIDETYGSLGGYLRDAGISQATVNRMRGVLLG
- assay_protocol: biochemical
- test_settings: pH 6
pIC50: −log10 of the molar value.
recorded_metric: pIC50

compound="O=[N+]([O-])c1ccc(Oc2ccc(Br)cc2)c(C(O)P(=O)(O)O)c1 (centres unmarked) [Compound 6, RWJ-60475]" assay_value="< 4.00"
compound="CCCCCCCCCCCC(=O)c1c(O)c(C(=O)CCCCCCCCCCC)c(O)c(C2CC(c3ccc(O)cc3)Oc3cc(O)ccc32)c1O (centres unmarked) [Compound 3, YM-26734]" assay_value="< 4.00"

----------
- assayed_system: AcpA (Francisella tularensis subsp. novicida)
- Sequence (A0Q436 21-514 limits assumed): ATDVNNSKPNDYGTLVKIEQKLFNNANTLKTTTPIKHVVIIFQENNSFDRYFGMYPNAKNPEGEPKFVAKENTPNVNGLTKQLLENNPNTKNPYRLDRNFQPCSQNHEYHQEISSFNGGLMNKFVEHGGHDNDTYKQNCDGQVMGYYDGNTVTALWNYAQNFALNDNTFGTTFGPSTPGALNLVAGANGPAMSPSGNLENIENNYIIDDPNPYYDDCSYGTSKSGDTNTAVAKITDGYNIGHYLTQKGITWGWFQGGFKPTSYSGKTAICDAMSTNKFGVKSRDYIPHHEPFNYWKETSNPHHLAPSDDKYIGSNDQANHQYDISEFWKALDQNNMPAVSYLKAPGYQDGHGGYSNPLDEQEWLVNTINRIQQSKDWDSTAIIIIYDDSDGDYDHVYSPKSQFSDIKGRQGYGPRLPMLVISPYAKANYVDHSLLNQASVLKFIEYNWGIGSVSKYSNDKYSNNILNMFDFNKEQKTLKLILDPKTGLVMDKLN
recorded_metric: IC50 (µM)

structure_string=O=C1O[C@H]([C@@H](O)CO)C(O)=C1OP(=O)(O)O recorded_metric=IC50 unit_tag=µM assay_value=116

----------
- assayed_system: MptpA (Mycobacterium tuberculosis)
- Sequence (P9WIA1 whole entry): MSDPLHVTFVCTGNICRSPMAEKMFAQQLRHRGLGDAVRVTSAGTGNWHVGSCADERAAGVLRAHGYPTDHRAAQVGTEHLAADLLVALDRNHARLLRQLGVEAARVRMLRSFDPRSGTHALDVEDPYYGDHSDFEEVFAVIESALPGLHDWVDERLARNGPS
- assay_protocol: biochemical
- test_settings: pNPP assay, pH 6
pIC50: −log10 of the molar value.
Reported pIC50 values for a set of compounds
recorded_metric: pIC50

compound="N#CC(C#N)=C(N)/C(C#N)=C/c1cc(O)c(O)c(O)c1 [Compound 13, Tyrphostin AG 183]" recorded_metric=pIC50 readout_relation== assay_value=4.78
compound="N#CC(C#N)=Cc1cc(O)c(O)c(O)c1 [Compound 14, Tyrphostin AG 82]" recorded_metric=pIC50 readout_relation== assay_value=4.63
compound="O=c1oc2c(cc1O)oc(=O)c1cc(O)c(O)c(O)c12 [Compound 2, Galloflavin]" recorded_metric=pIC50 readout_relation== assay_value=4.26
compound="N#CC(C#N)=C(N)/C(C#N)=C/c1cc(O)c(O)c(O)c1 [Compound 1, Tyrphostin 51]" recorded_metric=pIC50 readout_relation== assay_value=4.70
compound="O=C(O)c1cc(O)c(O)c(O)c1 [Compound 29, Gallic acid]" recorded_metric=pIC50 readout_relation=< assay_value=4.00

----------
- assayed_system: VHR (Homo sapiens)
- Sequence (P51452 whole entry): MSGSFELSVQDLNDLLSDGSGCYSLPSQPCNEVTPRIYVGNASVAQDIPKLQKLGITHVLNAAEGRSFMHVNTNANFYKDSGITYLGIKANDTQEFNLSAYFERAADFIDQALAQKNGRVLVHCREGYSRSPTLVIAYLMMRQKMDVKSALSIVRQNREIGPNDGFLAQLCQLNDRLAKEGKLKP
- assay_protocol: hVHR inhibition, pNPP assay
- Assay type: biochemical
- test_settings: pNPP assay, pH 5.5; read-out: IC50 VHR
pIC50: −log10 of the molar value.
recorded_metric: pIC50

structure_string=N#CC(C#N)=C(N)/C(C#N)=C/c1cc(O)c(O)c(O)c1 assay_value="< 4.00"

----------
- assayed_system: SapM (Mycobacterium tuberculosis)
- Construct: made in house; host or cells: Escherichia coli C41 (DE3)
- assay_protocol: biochemical
- Format: biochemical
- test_settings: compounds at 100 µM; relative to pNPP DMSO control
recorded_metric: %SA (percentage specific activity of SapM) (%)

compound="Oc1cc(O)c2c(c1)O[C@H](c1ccc(O)c(O)c1)[C@@H](O)C2 [Compound 33, (+)-Catechin]" assay_value=95.9
compound="N#CC(C#N)=C(N)/C(C#N)=C/c1ccc(O)cc1 [Compound 9, Tyrphostin AG 112]" assay_value=88.7
compound="N#C/C(=C\\c1ccc(O)c(O)c1)C(=O)c1ccc(O)c(O)c1 [Compound 11, Tyrphostin AG 538]" assay_value=100.2
compound="N#CC(C#N)=C(N)/C(C#N)=C/c1cc(O)c(O)c(O)c1 [Compound 13, Tyrphostin AG 183]" assay_value=0
compound="N#CC(=Cc1ccc2[nH]ccc2c1)C(N)=C(C#N)C#N [Compound 18, Tyrphostin AG 370]" assay_value=94.6
compound="N#C/C(=C\\c1ccc(O)c(O)c1)C(N)=O [Compound 16, Tyrphostin AG 99]" assay_value=58.3
compound="C[C@H](O)[C@H](O)[C@H]1CNc2[nH]c(N)nc(=O)c2N1.Cl.Cl [Compound 5, (6R)-BH4, reference compound]" assay_value=33.3
compound="O.O.O=c1c(O)c(-c2ccc(O)c(O)c2)oc2cc(O)cc(O)c12 [Compound 28, Quercetin dehydrate]" assay_value=78.9
compound="N#CC(C#N)=Cc1ccc([N+](=O)[O-])c(O)c1 [Compound 19, Tyrphostin AG 126]" assay_value=99.0
compound="NC(Cc1cc(O)c(O)cc1O)C(=O)O (racemic) [Compound 20, 6-Hydroxy-DL-DOPA]" assay_value=71.7

----------
- assayed_system: UniProt:P51452
- assay_protocol: hVHR inhibition, pNPP assay
- Type: biochemical
recorded_metric: IC50

compound="O=c1oc2c(cc1O)oc(=O)c1cc(O)c(O)c(O)c12 [Compound 2, Galloflavin]" assayed_system=UniProt:P51452 assay_value="> 100 µM"
